All figures here come from patent US20230144901A1.

What pIC50 was measured for each of the following?
# pIC50 is unitless: minus log10 of the molar concentration; print number only

Requested read-out pIC50, target or system hSortilin (Homo sapiens), entry Cc1cccc(NC(=O)c2cc(Br)ccc2C(=O)O)n1 [Example 2]
4.92

Requested read-out pIC50, target or system hSortilin (Homo sapiens), entry O=C(O)c1cc(C(F)(F)F)ccc1C(=O)Nc1ccc2c(n1)CCCC2 [Example 30]
7.00

Requested read-out pIC50, target or system hSortilin (Homo sapiens), entry Cc1cccc(NC(=O)c2ccc(Br)cc2C(=O)O)c1 [Example 20]
5.28

###

What inhibition at 50 µM was measured for each of the following?
Target: hSortilin (Homo sapiens, UniProt Q99523)
Sequence (Q99523 78-831): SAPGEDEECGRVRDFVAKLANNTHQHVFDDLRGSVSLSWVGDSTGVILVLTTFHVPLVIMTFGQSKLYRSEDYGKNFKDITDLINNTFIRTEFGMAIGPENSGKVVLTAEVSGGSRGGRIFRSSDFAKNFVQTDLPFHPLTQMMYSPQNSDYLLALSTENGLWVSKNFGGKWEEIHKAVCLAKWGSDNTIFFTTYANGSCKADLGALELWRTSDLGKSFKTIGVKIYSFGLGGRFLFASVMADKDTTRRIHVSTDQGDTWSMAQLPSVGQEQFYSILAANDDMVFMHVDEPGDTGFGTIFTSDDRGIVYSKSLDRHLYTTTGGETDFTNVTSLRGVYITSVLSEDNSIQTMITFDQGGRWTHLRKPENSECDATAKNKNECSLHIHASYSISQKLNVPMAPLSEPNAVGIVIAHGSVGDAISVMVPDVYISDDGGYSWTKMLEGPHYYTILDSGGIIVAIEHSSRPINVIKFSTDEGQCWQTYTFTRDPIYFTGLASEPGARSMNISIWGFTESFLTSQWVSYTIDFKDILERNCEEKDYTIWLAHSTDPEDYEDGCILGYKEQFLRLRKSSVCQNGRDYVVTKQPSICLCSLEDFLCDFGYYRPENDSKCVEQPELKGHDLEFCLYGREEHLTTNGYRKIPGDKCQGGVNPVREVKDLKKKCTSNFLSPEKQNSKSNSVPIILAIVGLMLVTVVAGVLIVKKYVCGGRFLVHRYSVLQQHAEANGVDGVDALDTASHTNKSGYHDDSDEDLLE
Assay: Neurotensin (NTS) scintillation proximity assay (SPA): displacement of 3H-neurotensin binding to hSortilin
Conditions: read-out: % inhibition at 50 μM; NTS SPA, compound at 50 μM (footnote *)
Number in %, nothing else.

Which inhibition at 50 µM value belongs to Cc1ccc(NC(=O)c2ccc(Br)cc2C(=O)O)cn1 [Example 25] ?
70

Which inhibition at 50 µM value belongs to O=C(O)c1cc(Br)ccc1C(=O)Nc1ccccc1 [Example 19, 5-bromo-2-(phenylcarbamoyl)benzoic acid] ?
69

Which inhibition at 50 µM value belongs to CCC(C)NC(=O)c1ccc(Br)cc1C(=O)O (centres unmarked) [Example 17] ?
30

Which inhibition at 50 µM value belongs to CC(C)NC(=O)c1ccc(Br)cc1C(=O)O [Example 18] ?
35

Which inhibition at 50 µM value belongs to Cc1cccc(NC(=O)c2cccc(C)c2C(=O)O)n1 [Example 4] ?
5

Which inhibition at 50 µM value belongs to Cc1cccc(NC(=O)c2ccccc2C(=O)O)n1 [Example 3] ?
15

Which inhibition at 50 µM value belongs to Cc1cccnc1NC(=O)c1ccc(Br)cc1C(=O)O [Example 24] ?
64

Which inhibition at 50 µM value belongs to Cc1cccc(NC(=O)c2ccc(-c3ccccc3)cc2C(=O)O)n1 [Example 10] ?
2

Which inhibition at 50 µM value belongs to Cc1cccc(NC(=O)c2c(C)cccc2C(=O)O)n1 [Example 16] ?
43

Which inhibition at 50 µM value belongs to Cc1ccc(C(=O)O)c(C(=O)Nc2cccc(C)n2)c1 [Example 12] ?
57

Which inhibition at 50 µM value belongs to Cc1cccc(NC(=O)c2cc(Cl)ccc2C(=O)O)n1 [Example 11] ?
69
